# TARGET ENTITY: T1, CRF2R
# T1 sequence (Q13324 whole entry, species assumed, looked up): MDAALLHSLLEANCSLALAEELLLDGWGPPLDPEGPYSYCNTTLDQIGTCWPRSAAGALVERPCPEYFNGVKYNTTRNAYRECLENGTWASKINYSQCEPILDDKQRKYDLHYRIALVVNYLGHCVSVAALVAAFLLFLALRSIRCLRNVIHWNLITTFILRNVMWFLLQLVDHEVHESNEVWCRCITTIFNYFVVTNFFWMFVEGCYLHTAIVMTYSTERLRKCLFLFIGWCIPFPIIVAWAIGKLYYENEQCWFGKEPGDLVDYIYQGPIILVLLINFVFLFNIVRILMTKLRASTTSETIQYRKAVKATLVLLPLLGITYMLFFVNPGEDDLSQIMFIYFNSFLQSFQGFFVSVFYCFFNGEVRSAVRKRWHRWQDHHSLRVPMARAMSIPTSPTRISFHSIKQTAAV
# EXPERIMENT SUMMARY: cell-based or functional assay
Ends that are not written are not given here.
// classify: if (CRF2R Emax < 10%) Fulfilled else Not fulfilled

Some solved cases for reference:
SEEPPISLDVPIGLLQEVLEMARAEQLAQQAHSNRKLMEII-NH2 [SEQ ID NO 162]    Fulfilled
IVLSLDVPIGLLQILIEIEKQEKEKQQAATTNARILARV-NH2 [SEQ ID NO 168]    Not fulfilled
ZGPPISIDLPFQLLRKMIEIEKQEKEKQQATTNRLLLDTV (C-terminal amide) [SEQ ID NO 16]    Not fulfilled
ZGPPISIDLPIRLLRKMIEIEKQEKEKQQAANNRLLLDTI (C-terminal amide) [SEQ ID NO 38]    Not fulfilled
IVLSLDVPIGLLQILLEQAKADAAREQATTNARILARV-NH2 [SEQ ID NO 131]    Not fulfilled

[in] Given ZGPPISIDLPIYLLRKMIEIEKQEKEKQQATTNARILARV (C-terminal amide) [SEQ ID NO 149] , is recorded CRF2R Emax strictly lower than 10%?
[out] Not fulfilled

[in] Given IVLSLDVPGPLLQILLEQTKQEAAREQATTNARILARV-NH2 [SEQ ID NO 5] , is recorded CRF2R Emax strictly lower than 10%?
[out] Not fulfilled

[in] Given ZGPPISIDLPYLLLRKMIEIEKQEKEKQQAANNRLLLDTI (C-terminal amide) [SEQ ID NO 203] , is recorded CRF2R Emax strictly lower than 10%?
[out] Not fulfilled

[in] Given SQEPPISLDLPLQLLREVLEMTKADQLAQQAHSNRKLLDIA-NH2 [SEQ ID NO 95] , is recorded CRF2R Emax strictly lower than 10%?
[out] Fulfilled
